The origin of these recorded values is patent US20230321103A1.

Molecular target: EGFR (L861Q) (Homo sapiens, UniProt P00533, L861Q)
Construct: purchased Reaction Biology Corporation (commissioned test)
Sequence (P00533 25-1210 L861Q): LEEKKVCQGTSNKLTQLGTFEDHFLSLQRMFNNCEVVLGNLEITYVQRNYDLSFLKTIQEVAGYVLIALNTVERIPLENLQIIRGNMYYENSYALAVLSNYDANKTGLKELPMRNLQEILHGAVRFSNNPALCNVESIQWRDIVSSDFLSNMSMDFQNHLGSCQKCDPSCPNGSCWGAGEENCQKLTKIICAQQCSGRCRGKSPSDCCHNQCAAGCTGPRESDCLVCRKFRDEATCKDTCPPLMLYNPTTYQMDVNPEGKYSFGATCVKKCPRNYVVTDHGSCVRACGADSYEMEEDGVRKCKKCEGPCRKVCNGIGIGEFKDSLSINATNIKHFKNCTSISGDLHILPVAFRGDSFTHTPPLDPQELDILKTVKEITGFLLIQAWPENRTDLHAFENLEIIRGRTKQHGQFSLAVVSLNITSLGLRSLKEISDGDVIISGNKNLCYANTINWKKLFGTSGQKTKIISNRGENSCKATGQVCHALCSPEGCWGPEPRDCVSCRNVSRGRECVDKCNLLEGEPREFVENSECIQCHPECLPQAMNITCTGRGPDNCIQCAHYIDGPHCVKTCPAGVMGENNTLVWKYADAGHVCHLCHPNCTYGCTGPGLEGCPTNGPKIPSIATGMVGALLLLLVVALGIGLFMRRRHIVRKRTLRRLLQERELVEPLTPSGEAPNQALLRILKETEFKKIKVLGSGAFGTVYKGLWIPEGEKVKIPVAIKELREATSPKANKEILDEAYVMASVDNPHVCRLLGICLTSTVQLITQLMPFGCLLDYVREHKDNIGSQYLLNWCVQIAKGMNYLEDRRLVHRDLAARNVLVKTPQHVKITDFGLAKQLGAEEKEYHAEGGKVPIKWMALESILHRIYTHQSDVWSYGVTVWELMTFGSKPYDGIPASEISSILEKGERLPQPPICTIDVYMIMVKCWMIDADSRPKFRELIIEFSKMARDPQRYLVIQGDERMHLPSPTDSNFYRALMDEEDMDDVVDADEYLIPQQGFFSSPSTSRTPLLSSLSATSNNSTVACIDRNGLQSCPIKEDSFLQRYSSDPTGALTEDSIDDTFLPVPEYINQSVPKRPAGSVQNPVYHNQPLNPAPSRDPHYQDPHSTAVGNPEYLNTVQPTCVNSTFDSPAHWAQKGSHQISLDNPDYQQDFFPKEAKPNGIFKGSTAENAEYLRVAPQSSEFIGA
Experiment: Kinase spectrum evaluation, radiometric 33P-ATP kinase assay
Assay type: biochemical
Conditions: room temperature 2 h, 10 concentration gradients
Exercise: state measured pIC50 for each of the compounds provided.
One number for each entry, as −log10 of the molar value.

Answered cases to consult:
item_smiles: C=CC(=O)Nc1cccc(-n2c(=O)c(-c3ccccc3)nc3cnc(Nc4ccc(N5CCN(C)CC5)c(OC)c4)nc32)c1
property_measured: pIC50
numeric_result: 8.78
//
item_smiles: C=CC(=O)Nc1cccc(-n2c(=O)c(-c3ccc(OC)cc3)nc3cnc(Nc4ccc(N5CCN(C)CC5)cc4OC)nc32)c1
property_measured: pIC50
numeric_result: 9.06
//
item_smiles: C=CC(=O)Nc1cccc(-n2c(=O)c(C3CCCCC3)nc3cnc(Nc4ccc(N5CCN(C)CC5)cc4OC)nc32)c1
property_measured: pIC50
numeric_result: 9.03

# batch size: 2; output pIC50 per entry
1. C=CC(=O)Nc1cccc(-n2c(=O)c(-c3ccccc3)nc3cnc(Nc4ccc(N(C)CCN(C)C)cc4OC)nc32)c1
2. C=CC(=O)Nc1cccc(-n2c(=O)c(-c3ccc(F)cc3)nc3cnc(Nc4ccc(N5CCN(C)CC5)cc4OC)nc32)c1

Result block:
8.69
8.98
